From: ChEMBL document CHEMBL4513216

Below, each of the molecules is paired with its reported INHIBITION value.
test system: Plasmodium berghei; test: Screen against P. berghei liver stage (PbLuc), transformed with Luciferase, at 10uM; assay type: functional, HepG2; details: tested at 10 uM
The whole screen tested about 69,000 compounds, of which about 8,600 (12%) showed an effect of 50% or more. Shown is part of a subset that was picked to be rich in strong results.

molecule: CC(O)Cc1cn(CC2CCN(C3CCSCC3)CC2)nn1 (centres undefined)
INHIBITION / %: 57.8
//
molecule: CN(Cc1cccs1)C1CCC[C@@H]2CN(C(N)=O)C[C@H]12 (some centres undefined)
INHIBITION / %: 39.3
//
molecule: CCN1CCN(C(=O)COCc2cccc(OC)c2)CC1
INHIBITION / %: -28.675
//
molecule: Cc1nc(C(=O)N[C@H]2COC[C@@H]2N2CCCCC2)cs1
INHIBITION / %: 11.3
//
molecule: O=C(c1cccc(F)c1)N1CCc2ncc(Cn3cccn3)n2CC1
INHIBITION / %: 3.58
//
molecule: COc1ccc2c3c1CN(S(C)(=O)=O)CC3=CC(C)(C)CO2
INHIBITION / %: 29.8
//
molecule: CS(=O)(=O)CCC(=O)N(Cc1c(F)cccc1F)C1CCCC1
INHIBITION / %: 55
//
molecule: CC1(C2CCN(CC(N)=O)CC2)CN(Cc2ccccc2)C(=O)CO1 (centres undefined)
INHIBITION / %: 0.301
//
molecule: COc1ccc(C2=NOC(C#N)C2)cc1 (centres undefined)
INHIBITION / %: 15.9
//
molecule: O=C(NC1(c2nnn(CCO)n2)CCCC1)c1ccccc1
INHIBITION / %: -16.2
//
molecule: CS(=O)(=O)CCC(=O)N(CCc1cccc(F)c1)C1CC1
INHIBITION / %: 40.7
//
molecule: COc1ccccc1S(=O)(=O)Nc1cnc(O)cc1C
INHIBITION / %: -13.6
//
molecule: c1cc(CN2CCc3ncc(CN4CCOCC4)n3CC2)cs1
INHIBITION / %: -36
//
molecule: Cc1nc(NC2CCS(=O)(=O)CC2)cc(C2CCCNC2)n1 (centres undefined)
INHIBITION / %: 62.2
//
molecule: CS(=O)(=O)N1CCCC(C(=O)Nc2cnn(Cc3ccc(F)cc3)c2)C1 (centres undefined)
INHIBITION / %: 30.8
//
molecule: O=C1CCC2(CCCN(CCn3cc(Cl)cn3)C2)CN1C1CCCC1 (centres undefined)
INHIBITION / %: 31.5
//
molecule: O=C(c1ccc(S(=O)(=O)NCc2ccon2)cc1)N1CCCCCC1
INHIBITION / %: -6.21
//
molecule: Cc1cc(C(=O)N2CCN[C@H](C)C2)c2ccc(F)cc2n1
INHIBITION / %: 12.2
//
molecule: Cc1cc(C)nc(N2CC[C@H](Oc3ccccc3F)[C@@H](O)CC2)n1
INHIBITION / %: 42.6
//
molecule: O=C(NCC1CC1)C1CN(C(=O)Nc2ccccc2)CC12CCOCC2 (centres undefined)
INHIBITION / %: 19.4
//
molecule: OCc1cn(CC2CCN(C3CCSC3)CC2)nn1 (centres undefined)
INHIBITION / %: -14.1
//
molecule: Cc1ccc2nc(C)c(C)c(C(=O)N[C@H]3COC[C@@H]3N3CCCC3)c2c1
INHIBITION / %: 59.1
//
molecule: CC(O)(CNC(=O)NCCc1ccc2c(c1)CCO2)c1ccsc1 (centres undefined)
INHIBITION / %: 30.8
//
molecule: CNS(=O)(=O)CC(=O)N(Cc1c(F)cccc1F)C1CCCC1
INHIBITION / %: -5.59
